Experiment: Cytotoxicity (Table 10)
Assay type: cell-based
Settings: human, Daudi cells, EBV row
assay metric: CC50

Entry under review: CC1(O)C(O)C(CO)OC1n1ccc(N)nc1=O (stereo not shown) . Reported CC50?
> 50 µg/mL

---

Experiment: Cytotoxicity (Table 10)
Settings: rhesus monkey, MA-104 cells
assay metric: CC50
# answer = value followed by unit

Please report the recorded CC50 for CC1(O)C(O)C(CO)OC1n1ccc(N)nc1=O (stereo not shown) [mCyd] .
200 µM

---

Assay: Cellular DNA or RNA synthesis ([3H]-thymidine / [3H]-uridine incorporation)
Conditions: human, HepG2 cells, probe [3H]-thymidine, CC50 DNA ([3H]Thymidine), 50% reduction of thymidine incorporation into cellular DNA
assay metric: CC50 (µM)
One number for each entry, in µM.

Any idea what CC50 was measured for CC1(O)C(O)C(CO)OC1n1ccc(N)nc1=O (stereo not shown) [mCyd] ?
112

---

Assay: Human bone marrow clonogenic assay
assay metric: CC50 (µM)
One number for each entry, in µM.

Need CC50, item CC1(O)C(O)C(CO)OC1n1ccc(N)nc1=O (stereo not shown) [mCyd]
13.9

---

Assay: Cytotoxicity (Table 10)
Conditions: dog, MDCK cells, Influenza B row
assay metric: CC50

Reported CC50, compound CC1(O)C(O)C(CO)OC1n1ccc(N)nc1=O (stereo not shown) : ____
55 to 140 µM

---

Experiment: Clinical pharmacokinetics of mCyd after oral val-mCyd
Details: human, plasma, 100 mg, Tmax (Mean), mCyd in plasma, val-mCyd 100 mg PO, Day 15
assay metric: Tmax (h)
One number for each entry, in h.

# Tmax lookup, item CC1(O)C(O)C(CO)OC1n1ccc(N)nc1=O (stereo not shown)
2

---

Tested on: BVDV NADL cp in MDBK cells
Assay: Yield reduction assay
Type: cell-based, bovine viral diarrhea virus
Conditions: Bovine viral diarrhea virus isolates and strains; yield reduction, BVDV NADL cp, MDBK
assay metric: pEC50
Give bare numbers, as −log10 of the molar value.

Given the entry CC1(O)C(O)C(CO)OC1n1ccc(N)nc1=O (stereo not shown) [mCyd] , report its measured pEC50.
5.56

---

Assay: Clinical pharmacokinetics of mCyd after oral val-mCyd
Details: human, plasma, 100 mg, Tmax (Mean), mCyd in plasma, val-mCyd 100 mg PO, Day 1
assay metric: Tmax (h)
Give bare numbers, in h.

Any idea what its Tmax is? The molecule is CC1(O)C(O)C(CO)OC1n1ccc(N)nc1=O (stereo not shown)
2.6

---

Assay: Clinical pharmacokinetics of mCyd after oral val-mCyd
Conditions: human, plasma, 100 mg, AUC0-inf (Mean), mCyd in plasma, val-mCyd 100 mg PO, Day 1
assay metric: AUC(0-inf) (ng·h/mL)
Answers are plain numbers, in ng·h/mL.

// returns reported AUC(0-inf) for input CC1(O)C(O)C(CO)OC1n1ccc(N)nc1=O (stereo not shown) [mCyd]
6900

---

Experiment: Clinical pharmacokinetics of mCyd after oral val-mCyd
Conditions: human, plasma, 100 mg, t1/2 (Mean), mCyd in plasma, val-mCyd 100 mg PO, Day 15
assay metric: half-life (h)
Give bare numbers, in h.

Fill in: half-life of CC1(O)C(O)C(CO)OC1n1ccc(N)nc1=O (stereo not shown) is ___
4.2

---

Assay: Cytotoxicity on uninfected cells in parallel to the CPA
Conditions: bovine, uninfected MDBK kidney cells
assay metric: CC50 at 4 days
Quick note: unit goes after the number.

What measured CC50 at 4 days goes with CC1(O)C(O)C(CO)OC1n1ccc(N)nc1=O (stereo not shown) ?
38 µM
